# measurementTarget: CDKN2AIP (UniProt Q9NXV6)
# Sequence: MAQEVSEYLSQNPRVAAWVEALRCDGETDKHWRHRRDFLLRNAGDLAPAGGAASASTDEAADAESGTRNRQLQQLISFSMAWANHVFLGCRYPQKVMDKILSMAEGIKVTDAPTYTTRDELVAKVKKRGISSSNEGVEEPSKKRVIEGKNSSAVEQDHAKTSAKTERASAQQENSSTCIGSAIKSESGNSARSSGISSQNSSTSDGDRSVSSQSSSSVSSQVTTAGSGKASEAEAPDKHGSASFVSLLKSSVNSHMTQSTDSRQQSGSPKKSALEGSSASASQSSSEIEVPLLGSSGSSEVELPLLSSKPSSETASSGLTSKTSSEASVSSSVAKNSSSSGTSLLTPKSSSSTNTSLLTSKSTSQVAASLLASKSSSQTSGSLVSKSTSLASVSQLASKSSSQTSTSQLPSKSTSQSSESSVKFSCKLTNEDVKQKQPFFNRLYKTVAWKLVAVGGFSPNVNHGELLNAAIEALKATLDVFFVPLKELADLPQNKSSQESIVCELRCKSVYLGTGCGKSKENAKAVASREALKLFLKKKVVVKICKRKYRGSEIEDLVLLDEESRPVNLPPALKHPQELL
# assayProcedure: EC50 of free RNA motif oligo competing protein binding to immobilised probe
measurementLabel: pEC50
Scale note: pEC50 = -log10(concentration in M).

Please report the measured pEC50 for UAUUUAU tested on CDKN2AIP (UniProt Q9NXV6).
6.38

----------
Below, each entry is listed with its recorded EC50.
# measurementTarget: DAZAP1 (UniProt Q96EP5)
# Sequence: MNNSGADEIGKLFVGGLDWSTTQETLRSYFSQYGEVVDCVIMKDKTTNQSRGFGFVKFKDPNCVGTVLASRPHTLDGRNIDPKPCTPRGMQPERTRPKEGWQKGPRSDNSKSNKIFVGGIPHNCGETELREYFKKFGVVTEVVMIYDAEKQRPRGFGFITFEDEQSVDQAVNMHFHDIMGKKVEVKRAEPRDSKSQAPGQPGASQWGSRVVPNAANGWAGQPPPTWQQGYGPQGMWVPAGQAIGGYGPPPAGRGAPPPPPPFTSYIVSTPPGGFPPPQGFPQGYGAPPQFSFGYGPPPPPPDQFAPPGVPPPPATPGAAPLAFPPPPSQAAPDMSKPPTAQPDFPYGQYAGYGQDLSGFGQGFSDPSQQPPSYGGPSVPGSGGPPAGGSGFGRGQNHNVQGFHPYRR
# assayProcedure: EC50 of free RNA motif oligo competing protein binding to immobilised probe
I only need the number, in nM, no unit after it.

Could you please provide reported EC50 for UAUUUAU ? Thanks!
1220

Next up:
Could you please provide reported EC50 for AAUAAA ? Thanks!
1240

----------
# measurementTarget: SYNCRIP (UniProt O60506)
# Sequence: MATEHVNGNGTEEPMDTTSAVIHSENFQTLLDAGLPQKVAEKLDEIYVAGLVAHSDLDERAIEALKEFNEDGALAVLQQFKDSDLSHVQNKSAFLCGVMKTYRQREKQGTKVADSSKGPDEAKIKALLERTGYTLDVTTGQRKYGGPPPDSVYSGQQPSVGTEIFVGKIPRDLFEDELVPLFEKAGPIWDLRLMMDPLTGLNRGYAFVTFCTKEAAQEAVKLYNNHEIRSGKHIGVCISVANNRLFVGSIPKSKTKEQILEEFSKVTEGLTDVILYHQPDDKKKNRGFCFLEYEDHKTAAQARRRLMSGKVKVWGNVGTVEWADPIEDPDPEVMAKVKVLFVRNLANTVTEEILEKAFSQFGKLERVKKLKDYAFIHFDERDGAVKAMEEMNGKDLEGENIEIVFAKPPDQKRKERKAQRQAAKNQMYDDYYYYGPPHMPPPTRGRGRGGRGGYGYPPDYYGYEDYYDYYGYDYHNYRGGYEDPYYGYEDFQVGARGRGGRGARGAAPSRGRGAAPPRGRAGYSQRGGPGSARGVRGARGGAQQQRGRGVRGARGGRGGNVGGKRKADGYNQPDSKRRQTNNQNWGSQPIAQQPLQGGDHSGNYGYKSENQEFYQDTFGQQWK
# assayProcedure: Kd (EC50 corrected by depletion factor)
measurementLabel: pKd
Scale note: pKd = -log10(concentration in M).

Could you please provide reported pKd for AAUAAA ? Thanks!
6.60

----------
# measurementTarget: MRPS22 (UniProt P82650)
# assayProcedure: Kd (EC50 corrected by depletion factor)
measurementLabel: Kd (nM)
I only need the number, in nM, no unit after it.

Could you please provide reported Kd for UAUUUAU ? Thanks!
57.8

----------
Below, each entry is listed with its recorded Kd.
# measurementTarget: PABPC1 (UniProt P11940)
# Sequence (P11940 whole entry): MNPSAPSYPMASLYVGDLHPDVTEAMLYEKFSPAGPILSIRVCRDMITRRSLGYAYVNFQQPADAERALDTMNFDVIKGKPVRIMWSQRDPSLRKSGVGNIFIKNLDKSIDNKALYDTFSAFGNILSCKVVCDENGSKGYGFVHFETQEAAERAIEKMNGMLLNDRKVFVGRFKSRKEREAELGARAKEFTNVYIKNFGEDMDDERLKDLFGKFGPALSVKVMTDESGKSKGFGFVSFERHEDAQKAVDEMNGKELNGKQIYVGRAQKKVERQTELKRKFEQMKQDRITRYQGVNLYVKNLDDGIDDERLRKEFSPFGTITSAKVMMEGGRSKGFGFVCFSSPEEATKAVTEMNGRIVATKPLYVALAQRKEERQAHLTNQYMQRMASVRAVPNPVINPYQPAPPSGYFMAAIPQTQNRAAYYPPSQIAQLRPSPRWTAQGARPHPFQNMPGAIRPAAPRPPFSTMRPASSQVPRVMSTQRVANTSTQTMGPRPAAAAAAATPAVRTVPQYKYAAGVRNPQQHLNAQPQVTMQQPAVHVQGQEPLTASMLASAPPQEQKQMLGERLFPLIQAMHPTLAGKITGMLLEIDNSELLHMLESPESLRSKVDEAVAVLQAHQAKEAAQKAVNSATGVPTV
# assayProcedure: Kd (EC50 corrected by depletion factor)
I only need the number, in µM, no unit after it.

Could you please provide reported Kd for CUGUCCU ? Thanks!
0.0959

New cases:
Could you please provide reported Kd for AAUAAA ? Thanks!
7.49

----------
# measurementTarget: CSTF2T (UniProt Q9H0L4)
# Sequence: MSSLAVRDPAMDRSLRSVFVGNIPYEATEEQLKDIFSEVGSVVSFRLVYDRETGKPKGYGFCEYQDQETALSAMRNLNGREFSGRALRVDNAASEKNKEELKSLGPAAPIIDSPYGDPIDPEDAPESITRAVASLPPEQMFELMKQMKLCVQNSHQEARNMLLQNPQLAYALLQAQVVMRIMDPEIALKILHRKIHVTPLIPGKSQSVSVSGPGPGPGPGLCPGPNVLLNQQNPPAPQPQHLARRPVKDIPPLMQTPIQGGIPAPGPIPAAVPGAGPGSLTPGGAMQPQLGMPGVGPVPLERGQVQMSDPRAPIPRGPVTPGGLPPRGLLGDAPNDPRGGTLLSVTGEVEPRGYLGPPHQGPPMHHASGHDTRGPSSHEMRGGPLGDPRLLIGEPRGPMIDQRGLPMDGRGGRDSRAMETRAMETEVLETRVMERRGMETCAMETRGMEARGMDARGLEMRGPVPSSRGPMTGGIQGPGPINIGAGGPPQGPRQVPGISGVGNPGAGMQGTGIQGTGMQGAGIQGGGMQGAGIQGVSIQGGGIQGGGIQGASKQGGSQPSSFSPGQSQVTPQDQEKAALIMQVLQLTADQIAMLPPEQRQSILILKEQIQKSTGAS
# assayProcedure: EC50 of free RNA motif oligo competing protein binding to immobilised probe
measurementLabel: EC50
Record the result as a number with its unit.

Could you please provide reported EC50 for UAUUUAU ? Thanks!
357 nM

----------
# measurementTarget: PINX1 (UniProt Q96BK5)
# Sequence: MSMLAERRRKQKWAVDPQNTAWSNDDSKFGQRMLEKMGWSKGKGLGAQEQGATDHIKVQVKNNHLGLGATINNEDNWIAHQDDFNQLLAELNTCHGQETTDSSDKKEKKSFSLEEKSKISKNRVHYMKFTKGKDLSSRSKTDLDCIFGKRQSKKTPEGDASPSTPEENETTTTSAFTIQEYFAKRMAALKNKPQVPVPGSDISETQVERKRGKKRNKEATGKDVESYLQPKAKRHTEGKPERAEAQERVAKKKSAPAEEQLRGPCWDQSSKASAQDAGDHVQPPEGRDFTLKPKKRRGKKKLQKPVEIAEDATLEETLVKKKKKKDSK
# assayProcedure: EC50 of free RNA motif oligo competing protein binding to immobilised probe
measurementLabel: EC50
Record the result as a number with its unit.

Could you please provide reported EC50 for AAUAAA ? Thanks!
2130 nM

----------
# measurementTarget: MRPL14 (UniProt Q6P1L8)
# assayProcedure: EC50 of free RNA motif oligo competing protein binding to immobilised probe
measurementLabel: pEC50
Scale note: pEC50 = -log10(concentration in M).

Please report the measured pEC50 for CUGUCCU tested on MRPL14 (UniProt Q6P1L8).
6.98

----------
# measurementTarget: SYMPK (UniProt Q92797)
# Sequence: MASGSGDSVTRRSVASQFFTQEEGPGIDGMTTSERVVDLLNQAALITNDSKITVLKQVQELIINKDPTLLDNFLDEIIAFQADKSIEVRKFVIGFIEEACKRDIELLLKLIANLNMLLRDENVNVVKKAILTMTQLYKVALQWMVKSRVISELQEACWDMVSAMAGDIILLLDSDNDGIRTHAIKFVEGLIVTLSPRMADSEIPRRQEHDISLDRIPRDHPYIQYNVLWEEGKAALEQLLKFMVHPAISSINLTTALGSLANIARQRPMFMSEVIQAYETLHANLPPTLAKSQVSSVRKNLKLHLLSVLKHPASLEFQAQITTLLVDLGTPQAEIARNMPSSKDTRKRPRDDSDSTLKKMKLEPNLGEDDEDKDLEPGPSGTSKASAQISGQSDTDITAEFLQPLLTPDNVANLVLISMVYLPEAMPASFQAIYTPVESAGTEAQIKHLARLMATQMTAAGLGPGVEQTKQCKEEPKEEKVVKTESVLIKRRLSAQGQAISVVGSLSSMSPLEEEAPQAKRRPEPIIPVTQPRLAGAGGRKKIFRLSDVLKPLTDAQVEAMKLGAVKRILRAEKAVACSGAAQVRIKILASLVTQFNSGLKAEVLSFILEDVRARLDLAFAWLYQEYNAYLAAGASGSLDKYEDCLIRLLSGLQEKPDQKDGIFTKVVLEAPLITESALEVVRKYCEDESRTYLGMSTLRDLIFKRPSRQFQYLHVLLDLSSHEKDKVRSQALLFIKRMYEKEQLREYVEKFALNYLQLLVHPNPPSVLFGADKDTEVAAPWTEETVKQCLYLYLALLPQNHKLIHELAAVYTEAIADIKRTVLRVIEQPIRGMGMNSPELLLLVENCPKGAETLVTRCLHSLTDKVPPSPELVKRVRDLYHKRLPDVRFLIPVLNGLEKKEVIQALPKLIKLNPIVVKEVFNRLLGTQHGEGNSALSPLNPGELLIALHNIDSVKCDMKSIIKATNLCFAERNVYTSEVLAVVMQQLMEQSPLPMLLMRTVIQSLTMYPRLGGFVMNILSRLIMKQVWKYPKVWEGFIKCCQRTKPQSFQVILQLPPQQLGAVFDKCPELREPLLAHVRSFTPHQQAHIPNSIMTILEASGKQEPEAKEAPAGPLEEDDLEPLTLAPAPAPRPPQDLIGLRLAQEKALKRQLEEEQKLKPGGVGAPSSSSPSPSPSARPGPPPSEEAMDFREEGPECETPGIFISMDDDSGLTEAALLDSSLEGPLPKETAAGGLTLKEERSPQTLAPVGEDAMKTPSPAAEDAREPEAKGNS
# assayProcedure: EC50 of free RNA motif oligo competing protein binding to immobilised probe
measurementLabel: pEC50
Scale note: pEC50 = -log10(concentration in M).

Could you please provide reported pEC50 for AAUAAA ? Thanks!
6.94
